Assay remarks: Intrinsic clearance in mouse liver microsomes assessed per mg protein measured after 60 mins in presence of NADPH by LC-MS/MS analysis
Type: ADME, Microsome
Test context: read-out: CLH
Quantity: microsomal CLint (µL/min/mg)

>  <Compound>
C=CC(=O)Nc1cc(Oc2nc(Nc3ccc(N4CCN(C)CC4)cc3OC)ccc2N2CCN(C)CC2)ccc1C

>  <Experimental value>
3

$$$$
>  <Compound>
C=CC(=O)Nc1cc(Oc2nc(Nc3ccc(N4CCN(C)CC4)nc3OC)ccc2N2CCCCC2)ccc1C

>  <Experimental value>
22

$$$$
>  <Compound>
C=CC(=O)Nc1cc(Oc2nc(Nc3ccc(N4CCN(C)CC4)cc3OC)ccc2N2CCCC2)ccc1C

>  <Experimental value>
26.7

$$$$
>  <Compound>
C=CC(=O)Nc1cc(Oc2nc(Nc3ccc(N4CCC(N(C)C)CC4)cc3OC)ccc2N2CCCCC2)ccc1C

>  <Experimental value>
4

$$$$

a: C=CC(=O)Nc1cc(Oc2nc(Nc3ccc(N4CCN(C)CC4)cc3OC)ccc2N2CCCCC2)ccc1C(F)(F)F
b: C=CC(=O)Nc1cccc(Oc2nc(Nc3ccc(N4CCN(C)CC4)cc3OC)ccc2Cl)c1
c: C=CC(=O)Nc1cc(Oc2nc(Nc3ccc(N4CCN(C)CC4)cc3OC)ccc2N2CCCC(O)C2)ccc1C (racemic)
d: C=CC(=O)Nc1cc(Oc2nc(Nc3ccc(N4CCN(C)CC4)cc3OC)ccc2N2CCCC2)ccc1C(F)(F)F
Exercise: Task field, ranking: reported microsomal CLint, descending order. Give me the labels in the order the question wants.
Solution: d, b, a, c

I: C=CC(=O)Nc1cc(Oc2nc(Nc3ccc(N4CCN(C)CC4)cc3OC)ccc2N2CCCCC2)ccc1C
II: C=CC(=O)Nc1cc(Oc2nc(Nc3ccc(N4CCN(C)CC4)cc3OC)ccc2N2CCOCC2)ccc1C
Exercise: Lab note: check whether I or II has the lower measured microsomal CLint. Field: selected label. Fill in the label of the entry you choose.
Solution: II

Origin of measurements: ChEMBL document CHEMBL4396895
